This collection of values is drawn from PubChem BioAssay (NCATS).

Test: Quantitative High-Throughput drug screen in 47 multiple myeloma cell lines against the NCATS MIPE library collection: NCIH929_DSMZ cell viability assay (AID 1918978); note: nearly all actives have a fitted effect of over 35% in size
Settings: NCI-H929 myeloma viability, CellTiter-Glo ATP, 48 h; series mostly up to 45.8 µM
From the text: PI: Beverly A. Mock Ph.D. Laboratory of Cancer Biology and Genetics, Center for Cancer Research, National Cancer Institute, National Institute of Health, Bethesda, Maryland […] 5; Detector; 425V; Luminescence; Viewlux PerkinElmer. […] 1. […] Briefly, the corresponding myeloma cell lines were screened in 1,536-well plates with 500 cells, 5-uL per well for inhibition of cell viability (assessed by measuring ATP levels with CellTiterGlo). […]
Inconclusive results are not listed. Activity calls are given as the source filed them. Calls come from the whole dose curve; as a rule, active = well fitted cell-killing curve with a large enough effect; inconclusive = small, poorly fitted or top-dose-only effect; inactive = no such curve, though single readings can be large or run the other way.
Classes used: active, inactive

{"SMILES STR": "COc1ccc([C@@H]2CC(=O)c3c(O)cc(O[C@@H]4O[C@H](CO[C@@H]5O[C@@H](C)[C@H](O)[C@@H](O)[C@@H]5O)[C@@H](O)[C@H](O)[C@@H]4O)cc3O2)cc1O", "CLASS NAME": "inactive"}
{"SMILES STR": "NC(=O)c1ccc(I)c([N+](=O)[O-])c1", "CLASS NAME": "active"}
{"SMILES STR": "OCCC#Cc1nc(-c2ccc(F)cc2)c(-c2ccncc2)n1CCCc1ccccc1", "CLASS NAME": "active"}
{"SMILES STR": "O=C(O)[C@@H](c1ccc(OCc2ccc3ccccc3n2)cc1)C1CCCC1", "CLASS NAME": "inactive"}
{"SMILES STR": "CNC(=O)c1ccc(N2C(=S)N(c3ccc(C#N)c(C(F)(F)F)c3)C(=O)C2(C)C)cc1F", "CLASS NAME": "inactive"}
{"SMILES STR": "O=c1[nH]cnc2[nH]ncc12", "CLASS NAME": "inactive"}
{"SMILES STR": "COCCNCCCn1c(C(=O)CF)c(-c2ccc(C)cc2)c2c(N)ncnc21", "CLASS NAME": "inactive"}

* * *

assay: Quantitative High-Throughput drug screen in 47 multiple myeloma cell lines against the NCATS MIPE library collection: FR4_PLB cell viability assay (AID 1918924; note: nearly all actives have a fitted effect of over 35% in size); conditions: FR4_PLB myeloma cells viability, CellTiter-Glo ATP, 48 h; series mostly up to 45.8 µM
Results filed as inconclusive are left out. Active and inactive are the calls of the source. The call rests on the fitted dose curve; in most records, active means well fitted cell-killing curve with a large enough effect; inconclusive means small, poorly fitted or top-dose-only effect, or effect the other way; inactive means no such curve, though single readings can be large or run the other way.
Classes used: true (1) (active), false (0) (inactive)

{"SMILES STR": "COc1ccc(-c2ccc3c(N4CCOC[C@H]4C)nc(N4CCOC[C@H]4C)nc3n2)cc1CO", "CLASS NAME": "true (1)"}
{"SMILES STR": "CNC[C@H](O)c1cccc(O)c1", "CLASS NAME": "false (0)"}
{"SMILES STR": "Cc1n[nH]c(C)c1Cc1sc2c(c1C(=O)N1C[C@H](O)CO1)c(=O)n(C)c(=O)n2CC(C)C", "CLASS NAME": "false (0)"}
{"SMILES STR": "COCCNCCCn1c(C(=O)CF)c(-c2ccc(C)cc2)c2c(N)ncnc21", "CLASS NAME": "true (1)"}
{"SMILES STR": "O=C(Nc1cccnc1)N1CCC(Cc2cccc(Oc3ccc(C(F)(F)F)cn3)c2)CC1", "CLASS NAME": "true (1)"}
{"SMILES STR": "CCOC(=O)C1=C[C@]2(CC)CCCN3CCc4c(n1c1ccccc41)[C@@H]32", "CLASS NAME": "true (1)"}
{"SMILES STR": "S=C(NCc1ccc2c(c1)OCO2)N1CCN(c2ncnc3c2oc2ccccc23)CC1", "CLASS NAME": "true (1)"}
{"SMILES STR": "CC(C)(C)OC(=O)CN(Cc1ccc(Cl)cc1)Cc1ccc([N+](=O)[O-])s1", "CLASS NAME": "false (0)"}
{"SMILES STR": "CCn1c(-c2nonc2N)nc2cnc(Oc3cccc(NC(=O)c4ccc(OCCN5CCOCC5)cc4)c3)cc21", "CLASS NAME": "true (1)"}

* * *

tested on: OV90; experiment: Primary qHTS to identify gynecologic anti-cancer compounds using libraries of approved drugs and bioactive compounds (AID 1345084); settings: Gynecologic cancer cell panel viability, ATPlite luminescence, 48 h; series mostly up to 57.5 µM; note: nearly all actives have a fitted effect of over 55% in size; note: potency is the fitted concentration of half-maximal effect
Inconclusive results are not listed. The source made the active and inactive calls. The call rests on the fitted dose curve; in most records, active means well fitted cell-killing curve with a large enough effect; inconclusive means small, poorly fitted or top-dose-only effect, or effect the other way; inactive means flat fitted curve, though single readings scatter.

{"COMPOUND": "C#Cc1cccc(Nc2ncnc3cc(OCCOC)c(OCCOC)cc23)c1", "Potency": "inactive"}
{"COMPOUND": "Cc1n[nH]c(C)c1Cc1sc2c(c1C(=O)N1C[C@H](O)CO1)c(=O)n(C)c(=O)n2CC(C)C", "Potency": "inactive"}
{"COMPOUND": "CN(C)c1ccc(C2Nc3ccc4ccccc4c3C3=C2C(=O)CC(C)(C)C3)cc1Br (centres undefined)", "Potency": "inactive"}
{"COMPOUND": "O=C1CCC(N2C(=O)c3ccccc3C2=O)C(=O)N1 (centres undefined)", "Potency": "inactive"}
{"COMPOUND": "CCCc1nc2c(C)cc(-c3nc4ccccc4n3C)cc2n1Cc1ccc(-c2ccccc2C(=O)O)cc1", "Potency": "inactive"}
{"COMPOUND": "Nc1nc2c(ncn2COCCO)c(=O)[nH]1", "Potency": "inactive"}
{"COMPOUND": "CC(C)(Sc1ccc(CCN(CCCCC2CCCCC2)C(=O)NC2CCCCC2)cc1)C(=O)O", "Potency": "inactive"}
{"COMPOUND": "CC(C)(N)C(=O)N[C@H](COCc1ccccc1)C(=O)N1CCC2(CC1)CN(S(C)(=O)=O)c1ccccc12", "Potency": "inactive"}
{"COMPOUND": "COc1cc2c(cc1OC)CN(CCc1ccc(NC(=O)c3cccc4c(=O)c5cccc(OC)c5[nH]c34)cc1)CC2", "Potency": "inactive"}
{"COMPOUND": "Cc1[nH]c(=O)c(C#N)cc1-c1ccncc1", "Potency": "inactive"}
{"COMPOUND": "CN(C(=O)c1ccc(F)cc1C(F)(F)F)C1CCN(c2nnc(-c3ccnn3C)c3ccccc23)CC1", "Potency": "inactive"}
{"COMPOUND": "NC[C@H](O)c1ccc(O)c(O)c1", "Potency": "inactive"}
{"COMPOUND": "Cc1csc(NC(=O)c2sc3nc4c(c(C(F)(F)F)c3c2N)CCC4)n1", "Potency": "12.6 µM (active)"}
{"COMPOUND": "Oc1ccc(C2CNCCc3c2cc(O)c(O)c3Cl)cc1 (centres undefined)", "Potency": "inactive"}
{"COMPOUND": "Cc1cnc(NC(=O)C2=C(O)c3ccccc3S(=O)(=O)N2C)s1", "Potency": "inactive"}
{"COMPOUND": "Clc1ccc(Nc2nnc(Cc3ccncc3)c3ccccc23)cc1", "Potency": "inactive"}
{"COMPOUND": "NC(=O)c1cnccn1", "Potency": "inactive"}
{"COMPOUND": "CCCS(=O)(=O)Nc1ccc(F)c(C(=O)c2c[nH]c3ncc(-c4ccc(Cl)cc4)cc23)c1F", "Potency": "inactive"}
{"COMPOUND": "CC(C)NCC(O)COc1ccc(COCCOC(C)C)cc1 (centres undefined)", "Potency": "inactive"}

* * *

test system: CP265; assay: qHTS profiling for inhibitors of Plasmodium falciparum proliferation (AID 504749); note: nearly all actives have a fitted effect of over 60% in size; details: P. falciparum in erythrocytes, SYBR Green DNA, 72 h; series mostly up to 28.7 µM
Inconclusive results are not listed. Calls of active or inactive are those of the source. Calls follow the shape of the dose curve; as a rule, active = well fitted inhibition curve with a large enough effect; inconclusive = small, poorly fitted or top-dose-only effect; inactive = flat fitted curve, though single readings scatter.
Classes used: active, inactive

{"COMPOUND": "Clc1cccc(Cl)c1NC1=NCCN1", "CLASS NAME": "inactive"}
{"COMPOUND": "N=c1nc(N2CCCCC2)cc(N)n1O", "CLASS NAME": "inactive"}
{"COMPOUND": "O=NN(CCCl)C(=O)NCCCl", "CLASS NAME": "inactive"}
{"COMPOUND": "Cc1cc2c(C(C)C)c(O)c(O)c(C=O)c2c(O)c1-c1c(C)cc2c(C(C)C)c(O)c(O)c(C=O)c2c1O", "CLASS NAME": "active"}
{"COMPOUND": "CC(C[N+](C)(C)C)OC(N)=O (stereo unspecified)", "CLASS NAME": "inactive"}
{"COMPOUND": "Nc1nc2ccc(OC(F)(F)F)cc2s1", "CLASS NAME": "inactive"}

* * *

Test system: PC26
Assay: qHTS profiling for inhibitors of Plasmodium falciparum proliferation (AID 504749); note: nearly all actives have a fitted effect of over 60% in size
Settings: P. falciparum in erythrocytes, SYBR Green DNA, 72 h; series mostly up to 28.7 µM
Method: NIH National Institute of Allergy and Infectious Diseases [NIAID] NIH Chemical Genomics Center [NCGC] […] Because mature erythrocytes lack DNA, only Plasmodium-derived DNA is detected. NCGC Assay Protocol Summary: The SYBR Green viability assay was adapted from a method described previously (Plouffe et al., 2008). […] The following morning, fluorescence intensity at 485(14) nm excitation and 535(25) nm emission wavelengths was measured on an EnVision (Perkin Elmer) plate reader. […]
Results filed as inconclusive are left out. The source made the active and inactive calls. Calls follow the shape of the dose curve; as a rule, active = well fitted inhibition curve with a large enough effect; inconclusive = small, poorly fitted or top-dose-only effect; inactive = flat fitted curve, though single readings scatter.
Classes used: 1 (active), 0 (inactive)

{"COMPOUND": "CN1CCN(CCCN2c3ccccc3Sc3ccc(C(F)(F)F)cc32)CC1", "CLASS NAME": 1}
{"COMPOUND": "CCCCNc1cc(C(=O)O)cc(S(N)(=O)=O)c1Oc1ccccc1", "CLASS NAME": 0}
{"COMPOUND": "Nc1nc2ccc(OC(F)(F)F)cc2s1", "CLASS NAME": 0}
{"COMPOUND": "CC(C)NCC(O)COc1ccc(COCCOC(C)C)cc1 (centres undefined)", "CLASS NAME": 0}
